Listing of recorded Cmax by entry.
- experimentalDetails: Sputum drug concentrations following aerosolization of FTI
- Format: in vivo, human
- conditionDetails: human, sputum, inhaled, 20 mg, patients with Bronchiectasis; aerosolized 80:20 mg FTI
Phrase the answer as number then unit, nothing more needed.

>  <lineNotation>
C[C@@H]1O[C@@H]1P(=O)(O)O

>  <Cmax>
1.75e+06 ng/g

$$$$

Let us move to another entry and its Cmax.
Given item NC[C@H]1O[C@H](O[C@H]2[C@H](O)[C@@H](O[C@H]3O[C@H](CO)[C@@H](O)[C@H](N)[C@H]3O)[C@H](N)C[C@@H]2N)[C@H](N)C[C@@H]1O , the value recorded as its Cmax is 326000 ng/g
